molecular target: panel of more than 300 wild-type and mutant kinases (313 kinase panel) (Homo sapiens, UniProt Q16832); test: Kinase profiling in a biochemical assay panel (mobility shift assays and ELISA), %-inhibition at 1 μM; selectivity entropy; conditions: kinase DDR2; compound at 1 μM
Sequence (Q16832 22-855, change not shown): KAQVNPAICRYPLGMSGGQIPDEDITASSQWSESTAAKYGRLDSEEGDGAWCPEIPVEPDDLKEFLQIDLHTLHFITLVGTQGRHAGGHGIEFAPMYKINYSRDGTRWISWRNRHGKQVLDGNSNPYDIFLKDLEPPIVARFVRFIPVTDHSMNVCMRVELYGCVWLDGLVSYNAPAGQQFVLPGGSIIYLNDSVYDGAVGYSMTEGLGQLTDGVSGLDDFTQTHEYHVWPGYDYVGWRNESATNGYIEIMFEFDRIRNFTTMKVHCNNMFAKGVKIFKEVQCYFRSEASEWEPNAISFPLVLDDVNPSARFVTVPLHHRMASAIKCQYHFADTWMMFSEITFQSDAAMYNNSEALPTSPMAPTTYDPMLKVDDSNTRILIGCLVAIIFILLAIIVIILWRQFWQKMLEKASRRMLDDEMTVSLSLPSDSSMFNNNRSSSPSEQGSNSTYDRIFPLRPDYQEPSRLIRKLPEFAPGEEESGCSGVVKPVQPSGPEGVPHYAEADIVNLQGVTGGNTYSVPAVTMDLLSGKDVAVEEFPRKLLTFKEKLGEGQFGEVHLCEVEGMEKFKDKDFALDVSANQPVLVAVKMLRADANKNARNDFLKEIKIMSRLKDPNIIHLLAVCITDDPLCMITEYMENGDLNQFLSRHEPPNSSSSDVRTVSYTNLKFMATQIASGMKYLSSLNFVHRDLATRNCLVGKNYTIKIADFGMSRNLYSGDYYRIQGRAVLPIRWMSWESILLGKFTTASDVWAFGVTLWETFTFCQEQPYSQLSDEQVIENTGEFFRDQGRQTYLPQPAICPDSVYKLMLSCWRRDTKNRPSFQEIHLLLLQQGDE
measuredQuantity: %-inhibition of DDR2 (%)
Answers are plain numbers, in %.

Example entries and their recorded answers appear below.
INSERT INTO measurements (smilesrepr, measuredquantity, u, assayresult) VALUES
  ('Cc1ccc(Nc2nccc(N(C)c3ccc4c(C)n(C)nc4c3)n2)cc1S(N)(=O)=O', '%-inhibition of DDR2', '%', 96),
  ('CCCS(=O)(=O)Nc1ccc(F)c(C(=O)c2c[nH]c3ncc(-c4ccc(Cl)cc4)cc23)c1F', '%-inhibition of DDR2', '%', 69),
  ('CO[C@H]1C[C@@H]2CC[C@@H](C)[C@@](O)(O2)C(=O)C(=O)N2CCCC[C@H]2C(=O)O[C@H]([C@H](C)C[C@@H]2CC[C@@H](OC(=O)C(C)(CO)CO)[C@H](OC)C2)CC(=O)[C@H](C)/C=C(\C)[C@@H](O)[C@@H](OC)C(=O)[C@H](C)C[C@H](C)/C=C/C=C/C=C/1C', '%-inhibition of DDR2', '%', -4),
  ('CS(=O)(=O)CCNCc1ccc(-c2ccc3ncnc(Nc4ccc(OCc5cccc(F)c5)c(Cl)c4)c3c2)o1', '%-inhibition of DDR2', '%', 83),
  ('Cc1ccc(C(=O)Nc2ccc(CN3CCN(C)CC3)c(C(F)(F)F)c2)cc1C#Cc1cnc2cccnn12', '%-inhibition of DDR2', '%', 101);

Let's switch to this molecule now.
Looking up Cc1cn(-c2cc(NC(=O)c3ccc(C)c(Nc4nccc(-c5cccnc5)n4)c3)cc(C(F)(F)F)c2)cn1 , I found its %-inhibition of DDR2 recorded as 102
